Values from patent US20230416329A1

In this section we review reported Ki values for a set of binders.
# TARGET_OR_TEST_SYSTEM: T1, porcine pancreatic elastase (porcine, UniProt P00772 27-266)
# T1 construct: substrate AAApNA
# T1 sequence (P00772 27-266 limits assumed): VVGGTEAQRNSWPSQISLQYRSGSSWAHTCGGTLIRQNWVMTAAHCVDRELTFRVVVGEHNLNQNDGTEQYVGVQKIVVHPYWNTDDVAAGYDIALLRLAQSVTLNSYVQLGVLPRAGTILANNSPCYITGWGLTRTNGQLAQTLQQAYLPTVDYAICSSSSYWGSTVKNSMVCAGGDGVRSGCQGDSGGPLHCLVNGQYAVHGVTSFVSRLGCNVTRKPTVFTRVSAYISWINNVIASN
# MEASUREMENT_NOTES: elastase inhibition, Ki=IC50/(1+S/Km)
Bridge positions count the residues as written; N and C are the ends. Ends that are not written are not given here.
# output: bare number, implied unit nM

Look up Ki for this binder: LCTASIPPQCQ (disulfide 2-10 (inferred), disulfide bond between the two Cys) [EC18]
270

Same read-out for VCTASIPPICQ (disulfide 2-10 (inferred), disulfide bond between the two Cys) [EC22] ?
110

Same read-out for CAIATASIPPICQ (disulfide 1-12 (inferred), disulfide bond between the two Cys) [EC45] ?
13400
